- testSystem: Adenosine receptor A2a (Homo sapiens, UniProt P29274)
- Sequence (P29274 whole entry): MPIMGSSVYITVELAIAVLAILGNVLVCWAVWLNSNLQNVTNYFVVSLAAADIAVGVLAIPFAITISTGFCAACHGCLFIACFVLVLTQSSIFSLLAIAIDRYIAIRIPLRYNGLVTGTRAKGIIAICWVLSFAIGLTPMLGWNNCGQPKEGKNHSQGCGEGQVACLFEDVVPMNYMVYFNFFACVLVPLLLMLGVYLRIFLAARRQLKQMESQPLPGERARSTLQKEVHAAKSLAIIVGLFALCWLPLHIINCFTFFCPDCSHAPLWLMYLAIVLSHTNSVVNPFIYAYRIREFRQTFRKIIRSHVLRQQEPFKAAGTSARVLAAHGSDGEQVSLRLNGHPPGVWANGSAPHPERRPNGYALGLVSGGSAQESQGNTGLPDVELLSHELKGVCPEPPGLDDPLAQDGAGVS
- assay: Displacement of [3H]ZM241385 from human adenosine A2A receptor expressed in human HeLa cells at 10 uM after 30 mins by beta scintillation counting
- Format: cell-based
Is inhibition at least 6%? Then T. If not, F.

N=c1oc2ccc(Br)cc2cc1C(=O)NCCCO :: T
COc1cccc2cc(C(=O)NC3CCCCC3)c(=N)oc12 :: T
COc1cccc2cc(C(=O)NCCc3ccc(O)cc3)c(=N)oc12 :: T
COc1cccc2cc(C(=O)Nc3c(C#N)ncn3-c3ccccc3)c(=N)oc12 :: T
CCC(CO)NC(=O)c1cc2cccc(OC)c2oc1=N (stereo not given) :: T
COc1cccc2cc(C(N)=O)c(=N)oc12 :: T
COc1cccc2cc(C(C)=O)c(=O)oc12 :: F
COc1cccc2cc(C(=O)NCCO)c(=N)oc12 :: T
COc1cccc2cc(C(=O)NCC(O)c3ccccc3)c(=N)oc12 (stereo not given) :: T
COc1cccc2cc(C(=O)NCC(O)CO)c(=O)oc12 (stereo not given) :: T

Input: # check: inhibition of O=C(NCCCN1CCN(CCCNC(=O)c2cc3ccccc3oc2=O)CC1)c1cc2ccccc2oc1=O is greater than or equal to 6%
Output: F

Input: # check: inhibition of COCCNC(=O)c1cc2cccc(OC)c2oc1=N is greater than or equal to 6%
Output: T

Input: # check: inhibition of O=C(NCC(O)CO)c1cc2cccc(O)c2oc1=O (stereo not given) is greater than or equal to 6%
Output: T

Input: # check: inhibition of N=c1oc2ccc(Br)cc2cc1C(=O)NC1CCCCC1 is greater than or equal to 6%
Output: F

Input: # check: inhibition of O=C(NCCCO)c1cc2ccccc2oc1=O is greater than or equal to 6%
Output: T

Input: # check: inhibition of N=c1oc2ccc(Br)cc2cc1C(=O)NC1CCCC1 is greater than or equal to 6%
Output: F

Input: # check: inhibition of COc1cccc2cc(C(=O)NC(CO)(CO)CO)c(=N)oc12 is greater than or equal to 6%
Output: T

Input: # check: inhibition of COc1cc(Br)cc2cc(C(=O)NCCCO)c(=N)oc12 is greater than or equal to 6%
Output: T

Input: # check: inhibition of O=C(NCC(O)CO)c1cc2cc(Cl)ccc2oc1=O (stereo not given) is greater than or equal to 6%
Output: F

Input: # check: inhibition of N=c1oc2ccc(Br)cc2cc1C(=O)NCC(O)CO (stereo not given) is greater than or equal to 6%
Output: T

Input: # check: inhibition of COCCNC(=O)c1cc2cccc(OC)c2oc1=O is greater than or equal to 6%
Output: T

Input: # check: inhibition of COc1cccc2cc(C(=O)NCCCOCCCCOCCCNC(=O)c3cc4cccc(OC)c4oc3=N)c(=N)oc12 is greater than or equal to 6%
Output: T

Input: # check: inhibition of COC(=O)/C(C#N)=C/c1cccc(OC)c1O is greater than or equal to 6%
Output: T
